Listed below: AC50 values for each entry.
# Test Target: Estrogen receptor (Homo sapiens)
# Assay Comment: CCTE_Deisenroth_AIME_96WELL_LUC_Active: CCTE's 96-well Estrogen Receptor Transactivation Assay with AIME metabolic competence (ERTA luciferase; metabolism positive), Deisenroth Lab (AID 2284023)
Inconclusive results are not listed. Active and inactive are the calls of the source. The calls were made as follows: active = hit-call score of the fitted dose curve at least 0.9, where 1 is the maximum; inconclusive = response in the unintended direction; inactive = score below 0.9.
Quantity Kind: AC50

>  <Chem Smiles>
O=C(C=Cc1ccccc1)c1ccccc1

>  <Quantity Kind>
AC50

>  <Recorded Measurement>
31.9 µM (active)

$$$$
>  <Chem Smiles>
Oc1ccccc1Cc1ccccc1

>  <Quantity Kind>
AC50

>  <Recorded Measurement>
27.7 µM (active)

$$$$
>  <Chem Smiles>
C(#Cc1ccccc1)c1ccccc1

>  <Quantity Kind>
AC50

>  <Recorded Measurement>
32.3 µM (active)

$$$$
